All values here come from the RNAGym collection of RNA variant scans (doi:10.1093/molbev/msab373).

Listed next: entries and their corresponding reverse-splicing fitness.
B1: Azoarcus group I ribozyme (parent)
chain: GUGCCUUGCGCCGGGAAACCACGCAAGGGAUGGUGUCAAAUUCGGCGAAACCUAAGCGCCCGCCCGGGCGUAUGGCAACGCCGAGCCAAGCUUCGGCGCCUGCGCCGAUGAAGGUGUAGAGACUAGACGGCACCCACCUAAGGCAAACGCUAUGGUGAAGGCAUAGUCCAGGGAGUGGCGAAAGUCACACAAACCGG

variants of: B1; experiment: reverse-splicing fitness (ratio to wild type); higher = more active; in vitro selection; Mg2+ level not given
Would you mind answering with just the numeric figure?

C82G A111C A120C C150U C169G U176A = 0.0152

Using the record for C82U A111G A120U A145C C150U C169U U176C , report its reverse-splicing fitness.
0.00222

Also C82G A111G A120G C150A U176C ?
0.023

Also, C82U A111U A145U C169U please.
0.0106
